Assign KA pIC50 with SEM (in brackets) to each entry below.
ASSAY SYSTEM: native KA receptors
ASSAY OVERVIEW: Radioligand binding at native KA receptors
STATED CONDITIONS: rat synaptosomes, [3H]KA

Known KA pIC50 with SEM (in brackets) results, listed for orientation:
MOLECULE: Cl.O=C(O)c1cc(C(=O)O)cc([C@H]2CCN[C@@H]2C(=O)O)c1 [5c]
RESULT: 4.21 ± 0.05
--
MOLECULE: Cl.O=C(O)c1cc(NC(=O)c2ccccc2)cc([C@H]2CCN[C@@H]2C(=O)O)c1 (racemic) [(±)-5m]
RESULT: 4.81±0.03
--
MOLECULE: Cl.O=C(O)c1cc(-c2cnn[nH]2)cc([C@H]2CCN[C@@H]2C(=O)O)c1 [5d]
RESULT: 4.71±0.06
--
MOLECULE: Cl.O=C(O)c1cc(Br)cc([C@H]2CCN[C@@H]2C(=O)O)c1 [5b]
RESULT: 4.99 ± 0.04
--
MOLECULE: O=C(O)c1cccc([C@H]2[C@H](CCO)CN[C@@H]2C(=O)O)c1 [9d]
RESULT: 4.89 ± 0.3
--
MOLECULE: Cl.O=C(O)c1cc(-c2ccccn2)cc([C@H]2CCN[C@@H]2C(=O)O)c1 [5e]
RESULT: 4.71±0.05

For every record below, what is its KA pIC50 with SEM (in brackets)?
1. Cl.O=C(O)c1cc(-c2cccnc2)cc([C@H]2CCN[C@@H]2C(=O)O)c1 [5f]
2. Cl.Cl.Nc1cc(C(=O)O)cc([C@H]2CCN[C@@H]2C(=O)O)c1 (racemic) [(±)-5j]
3. Cl.O=C(O)c1cc(-c2ccncc2)cc([C@H]2CCN[C@@H]2C(=O)O)c1 [5g]

["4.65±0.03", "4.07±0.04", "4.61±0.05"]
